tested on: lipid peroxidation in murine brain homogenate; test: Inhibitory effects on metal ion-induced lipid peroxidation (murine brain homogenate); type: biochemical, murine (C57 black mouse); settings: 1 mM test compound; 100 μM ammonium iron (II) sulphate; 37° C., 30 minutes; pH 7.2 to 7.8
Structures can show the parent of a compound that is named as a salt.
Think of 50% as a floor: if % Inhibition of metal ion-induced lipid peroxidation stands on it or above, it is fulfilled; beneath it, not fulfilled.

O=C(CCC(N=Cc1c(O)ccc2ccccc12)C(=O)O)NO (stereo not drawn) [Synthesis Example 50]
fulfilled
O=C(O)C(CO)N=Cc1c(O)ccc2ccccc12 (stereo not drawn) [Synthesis Example 28]
fulfilled
O=C(O)C(Cc1ccc(O)cc1)N=Cc1c(O)ccc2ccccc12 (stereo not drawn) [Synthesis Example 31]
fulfilled
O=C(O)C(Cc1ccccc1)N=Cc1c(O)ccc2ccccc12 (stereo not drawn) [Synthesis Example 54]
fulfilled
NC(=O)CCC(N=Cc1c(O)ccc2ccccc12)C(=O)O (stereo not drawn) [Synthesis Example 51]
fulfilled
COc1cccc(C=NC(Cc2c[nH]cn2)C(=O)O)c1O (stereo not drawn) [Synthesis Example 63]
fulfilled
COC(=O)CCC(N=Cc1c(O)ccc2ccccc12)C(=O)O (stereo not drawn) [Synthesis Example 48]
fulfilled
CC(C)CC(N=Cc1c(O)ccc2ccccc12)C(=O)O (stereo not drawn) [Synthesis Example 38]
fulfilled
COC(=O)C(Cc1ccccc1)NC(=O)C(CC(=O)O)N=Cc1c(O)ccc2ccccc12 (stereo not drawn) [Synthesis Example 67]
not fulfilled
Oc1ccc2ccccc2c1C=NCCc1c[nH]cn1 [Synthesis Example 46]
fulfilled
Cc1ncc(CO)c(CNC(CO)C(=O)O)c1O (stereo not drawn) [Synthesis Example 18]
not fulfilled
O=S(=O)(O)CCN=Cc1c(O)ccc2ccccc12 [Synthesis Example 65]
fulfilled
O=C(O)C(Cc1c[nH]c2ccccc12)N=Cc1c(O)ccc2ccccc12 (stereo not drawn) [Synthesis Example 55]
fulfilled
O=C(O)C(CCO)N=Cc1c(O)ccc2ccccc12 (stereo not drawn) [Synthesis Example 29]
fulfilled
COC(=O)C(CO)N=Cc1c(O)ccc2ccccc12 (stereo not drawn) [Synthesis Example 40]
fulfilled
NC(=O)CN=Cc1c(O)ccc2ccccc12 [Synthesis Example 35]
not fulfilled
O=C(O)CNC(=O)CN=Cc1c(O)ccc2ccccc12 [Synthesis Example 66]
not fulfilled
O=C(O)[C@H](Cc1c[nH]cn1)NCc1ccccc1O [Synthesis Example 1, N-(2-hydroxybenzyl)-L-histidine]
not fulfilled
Cc1ncc(CO)c(C=NC(CO)C(=O)O)c1O (stereo not drawn) [Synthesis Example 69]
not fulfilled
O=C(O)CCC(N=Cc1c(O)ccc2ccccc12)C(=O)O (stereo not drawn) [Synthesis Example 47]
fulfilled
O=C(O)CN=Cc1c(O)ccc2ccccc12 [Synthesis Example 34]
fulfilled
O=C(O)C(Cc1ccc(O)c(O)c1)N=Cc1c(O)ccc2ccccc12 (stereo not drawn) [Synthesis Example 32]
fulfilled
CCC(C)C(N=Cc1c(CO)cnc(C)c1O)C(=O)O (stereo not drawn) [Synthesis Example 72]
not fulfilled
O=C1O[C@H]([C@@H](O)CO)C(O)=C1O [Vitamin C, reference compound]
not fulfilled
O=C(O)C(CO)NCc1ccccc1O (stereo not drawn) [Synthesis Example 2]
not fulfilled
O=C(O)C(Cc1c[nH]cn1)N=Cc1ccccc1O (stereo not drawn) [Synthesis Example 60]
not fulfilled
O=C(O)C(CO)N=Cc1cc(Cl)ccc1O (stereo not drawn) [Synthesis Example 57]
not fulfilled
COC(=O)CCC(N=Cc1c(O)ccc2ccccc12)C(=O)OC (stereo not drawn) [Synthesis Example 49]
fulfilled
N=C(N)NCCCC(N=Cc1c(O)ccc2ccccc12)C(=O)O (stereo not drawn) [Synthesis Example 53]
fulfilled
COC(=O)C(Cc1c[nH]cn1)N=Cc1c(O)ccc2ccccc12 (stereo not drawn) [Synthesis Example 45]
fulfilled
O=C(O)C(Cc1c[nH]cn1)N=Cc1cc(Cl)ccc1O (stereo not drawn) [Synthesis Example 61]
not fulfilled
CC(C)C(N=Cc1c(O)ccc2ccccc12)C(=O)O (stereo not drawn) [Synthesis Example 30]
not fulfilled
O=C(O)CC(O)(CC(=O)O)C(=O)O [Citric acid, reference compound]
not fulfilled
O=C(O)C(Cc1ccc(O)cc1)NCc1ccccc1O (stereo not drawn) [Synthesis Example 4]
not fulfilled
Cc1ncc(CO)c(C=N[C@@H](Cc2c[nH]cn2)C(=O)O)c1O [Synthesis Example 68, N-pyridoxilidene-L-histidine-sodium salt]
not fulfilled
